# System: HEK293T cells
# test.details: Optimal copy number of riboswitch, GFP plasmids, fluorescence plate reader
# Assay type: cell-based
# test.settings: plasmids with 0-4 copies of riboswitch, GFP transgene
# Method: The protocol for both assays are outlined in FIGS. 8A and 8B. For determining optimal copy numbers, plasmids containing 0-4 copies of each riboswitch were created with the transgene as green fluorescence protein (GFP) for readout. HEK293T cells were plated in a 12-well plate and on day 2 transfected with 1 μg of each plasmid DNA. On day 3, cells were observed by fluorescent microscopy (excitation 467-498 nm) and fluorescence was quantified using a plate reader (488 nm excitation 520 nm emission). […]
property.label: Optimal Copy number
Reply briefly: the number, and no unit.

Recorded Optimal Copy number, per entry:
>>> recorded_value("L2Bulge9: Theophylline-responsive riboswitch, SEQ ID NO: 11 (nucleic acid) CTCGAGGCGATCGCAAACAAACAAAGCTGTCACCGGATGTGCTTTCCGGTCTGATGAGTCCGTTGTCCAATACCAGCATCGTCTTGATGCCCTTGGCAGTGGATGGGGACGGAGGACGAAACAGCAAAAAGAAAAATAAAAATTTTTTTTTTAATTAATCTTGGGCCC")
3
>>> recorded_value("Theo-SLIM: theophylline-responsive self-targeting ligand inactivating microRNA (SLIM) switch, SEQ ID NO: 1 (nucleic acid) CGTATCAGCAGGTCCCATAAGCTTTCGACAATTAACGAGTGTGTACTCGTTCTATCATCTCACAGTTAAAGTCGGGAGAATAGGAGCCGCACGGGTCCTGATACCAGCGTGAGCGGAGAGAATCTTCTTTCTGTCTATTAGTGAAGCCACAGATGTAATAGACAGAAAGAAGATTCTCTCCGCCTACGCCCTTGGCAGCACCGTACGGTTCGATC")
1
>>> recorded_value("K19: Tetracycline ON switch riboswitch, SEQ ID NO: 15 (nucleic acid) CAAACAAACAAAGGCGCGTCCTGGATTCGTGGTAAAACATACCAGATTTCGATCTGGAGAGGTGAAGAATACGACCACCTGTAGTATCCAGCTGATGAGTCCCAAATAGGACGAAACGCGCTAAACAAACAAAC")
1
>>> recorded_value("L2Bulge18tc: Tetracycline ON switch riboswitch, SEQ ID NO: 12 (nucleic acid) CTCGAGGCGATCGCAAACAAACAAAGCTGTCACCGGATGTGCTTTCCGGTCTGATGAGTCCGTTGTCCAAAACATACCAGATTTCGATCTGGAGAGGTGAAGAATTCGACCACCTGGACGAGGACGGAGGACGAAACAGCAAAAAGAAAAATAAAAATTAATTAATCTTGGGCCC")
3

Kindly review the next molecule as well.
State the recorded Optimal Copy number for this entry: Tet-SLIM: tetracycline-responsive self-targeting ligand inactivating microRNA (SLIM) switch, SEQ ID NO: 17 (nucleic acid) CTAGCACGGGTCCCTAAAACATACCGTGAGCGCGAAAGCGCCCCCATTTTGAGTTAGTGAAGCCACAGATGTAACTCAAAATGGGGGCGCTTTCCCGCCTACGGAGAGGTGAAGAATACGACCACCTAGAAGCTTATTGGTACATGATAACACCCCAAAATCGAAGCACTTCAAAAACACCCCAAAATCGAAGCACTTCAAAAACACCCCAAAATCGAAGCACTTCAAAAACACCCCAAAATCGAAGCACTTCAGTCTCAGGCATCGTACGATGTCGACCTGCAGG 1

All values here come from patent US12286631B2.
